Target: T1, IRF4 DBD T95K (Homo sapiens, UniProt Q15306 20-132, T95K)
T1 sequence: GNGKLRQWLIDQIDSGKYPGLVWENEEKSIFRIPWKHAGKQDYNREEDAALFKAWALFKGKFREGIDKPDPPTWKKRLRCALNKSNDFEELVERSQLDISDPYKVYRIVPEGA
Protocol: SPR steady state; FP: PBS + 0.05% Tween20, 5 nM DNA, 1 h, room temperature; SPR: Biacore S200, SA chip, protein 0.1-4500 nM, running buffer not given in material; errors are SD
Condition notes: protein: recombinant; tags: N-terminal His8-linker-His8-TEV, cleaved; label: 3' biotin; hairpin, TTTT loop
pKd: −log10 of the molar value.
Recorded metric: pKd

1. CTTGGTTTCACTTCCTGCGTTTTCGCAGGAAGTGAAACCAAG (structured_DNA) [IRE hairpin (biotin)]; 6.23
